# tgt: NAD-dependent deacetylase Sirtuin 1 (human)
# Sequence (Q96EB6 2-747 limits assumed): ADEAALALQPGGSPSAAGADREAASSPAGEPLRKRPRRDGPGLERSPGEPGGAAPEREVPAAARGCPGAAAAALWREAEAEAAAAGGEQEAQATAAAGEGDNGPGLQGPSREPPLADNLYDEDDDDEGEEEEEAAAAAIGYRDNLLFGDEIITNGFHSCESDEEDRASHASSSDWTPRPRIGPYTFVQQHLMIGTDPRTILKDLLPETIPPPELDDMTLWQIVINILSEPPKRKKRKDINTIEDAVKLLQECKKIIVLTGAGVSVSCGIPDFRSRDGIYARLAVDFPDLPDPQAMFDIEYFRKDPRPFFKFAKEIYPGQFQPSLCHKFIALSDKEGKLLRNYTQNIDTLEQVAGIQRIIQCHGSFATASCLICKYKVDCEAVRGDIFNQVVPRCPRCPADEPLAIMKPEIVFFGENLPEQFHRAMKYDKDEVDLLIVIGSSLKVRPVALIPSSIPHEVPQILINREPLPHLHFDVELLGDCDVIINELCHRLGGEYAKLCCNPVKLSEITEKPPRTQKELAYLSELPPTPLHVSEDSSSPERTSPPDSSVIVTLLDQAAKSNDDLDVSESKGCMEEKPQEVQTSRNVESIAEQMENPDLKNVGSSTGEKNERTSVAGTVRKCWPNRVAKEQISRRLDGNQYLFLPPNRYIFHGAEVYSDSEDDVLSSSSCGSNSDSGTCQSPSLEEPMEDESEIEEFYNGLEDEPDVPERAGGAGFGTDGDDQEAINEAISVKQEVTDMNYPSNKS
# procedure details: primary screen, delta tm
# Design: single well (n = 1, as 'the same TSA')
# measurement setup: 10 µM
In all, about 3,200 compounds were measured (“TSA(with NAD+) / Primary screening (TSA) / delta Tm (K)”: median about -0.04, highest 2% from about 0.37 on). This is one part of a sample in which the highest values are shown more often than they occur.
Use 0.02 K as the dividing line for TSA(with NAD+) / Primary screening (TSA) / delta Tm (K), with the line itself on the Criterion met side and lower values as Criterion not met.

Hi, just wondering whether `CCOc1ccc(/C=C(/C#N)C(=O)c2c[nH]c3cc(F)ccc23)cc1` shows TSA(with NAD+) / Primary screening (TSA) / delta Tm (K) of 0.02 K or higher.
Criterion not met

Hi, just wondering whether `CCCNc1nnc(S)s1` shows TSA(with NAD+) / Primary screening (TSA) / delta Tm (K) of 0.02 K or higher.
Criterion not met

Hi, just wondering whether CC1(c2cccc(NC(=O)c3ccc4c(c3)CCC4)c2)NC(=O)NC1=O (stereo not drawn) shows TSA(with NAD+) / Primary screening (TSA) / delta Tm (K) of 0.02 K or higher.
Criterion not met

Hi, just wondering whether COc1ccc(C(=O)OC(C)C(=O)Nc2ccc(C(N)=O)cc2)c(OC)c1 (stereo not drawn) shows TSA(with NAD+) / Primary screening (TSA) / delta Tm (K) of 0.02 K or higher.
Criterion not met

Hi, just wondering whether `Cc1nc(N2CCC(C(N)=O)CC2)c2c3c(sc2n1)CCCC3` shows TSA(with NAD+) / Primary screening (TSA) / delta Tm (K) of 0.02 K or higher.
Criterion met

Hi, just wondering whether `c1ccc(-c2[nH]c3c(ccc4ccccc43)c2-c2ccccc2)cc1` shows TSA(with NAD+) / Primary screening (TSA) / delta Tm (K) of 0.02 K or higher.
Criterion met

Hi, just wondering whether `CN(c1ccccc1)S(=O)(=O)c1cccc(NC(=O)COC(=O)C23CC4CC(CC(C4)C2)C3)c1` shows TSA(with NAD+) / Primary screening (TSA) / delta Tm (K) of 0.02 K or higher.
Criterion met

Hi, just wondering whether CC1CN(C(=O)/C=C/c2ccc(C(=O)O)cc2)CC(C)(C)O1 (stereo not drawn) shows TSA(with NAD+) / Primary screening (TSA) / delta Tm (K) of 0.02 K or higher.
Criterion not met

Hi, just wondering whether `CN(c1ccccc1)S(=O)(=O)c1cccc(NC(=O)CCc2c[nH]c3ccccc23)c1` shows TSA(with NAD+) / Primary screening (TSA) / delta Tm (K) of 0.02 K or higher.
Criterion met

Hi, just wondering whether `CN(c1ccccc1)S(=O)(=O)c1ccc(C(=O)NNC(=O)C23CC4CC(CC(C4)C2)C3)cc1` shows TSA(with NAD+) / Primary screening (TSA) / delta Tm (K) of 0.02 K or higher.
Criterion met

Hi, just wondering whether CC(NC(=O)COC(=O)c1cccc(S(=O)(=O)NCc2ccccc2)c1)C12CC3CC(CC(C3)C1)C2 (stereo not drawn) shows TSA(with NAD+) / Primary screening (TSA) / delta Tm (K) of 0.02 K or higher.
Criterion met

Hi, just wondering whether `CN(c1ccccc1)S(=O)(=O)c1cccc(C(=O)NCCc2c[nH]c3ccccc23)c1` shows TSA(with NAD+) / Primary screening (TSA) / delta Tm (K) of 0.02 K or higher.
Criterion met

Hi, just wondering whether `N#C/C(=C\c1[nH]c2ccccc2c1Cl)C(N)=O` shows TSA(with NAD+) / Primary screening (TSA) / delta Tm (K) of 0.02 K or higher.
Criterion not met

Hi, just wondering whether `Cc1nc(N2CCC(C(N)=O)CC2)c2c3c(sc2n1)CCCCC3` shows TSA(with NAD+) / Primary screening (TSA) / delta Tm (K) of 0.02 K or higher.
Criterion met

Hi, just wondering whether `CS(=O)(=O)c1ccc(NCCNC(=O)C23CC4CC(C2)CC(c2ccccc2)(C4)C3)c([N+](=O)[O-])c1` shows TSA(with NAD+) / Primary screening (TSA) / delta Tm (K) of 0.02 K or higher.
Criterion met

Hi, just wondering whether CC(=O)c1ccc(NC(=O)C(C)OC(=O)c2cccc(S(=O)(=O)NC(C)C34CC5CC(CC(C5)C3)C4)c2)cc1 (stereo not drawn) shows TSA(with NAD+) / Primary screening (TSA) / delta Tm (K) of 0.02 K or higher.
Criterion met

Hi, just wondering whether `NC(=O)CCN(Cc1ccccc1)C(=O)COC(=O)C12CC3CC(C1)CC(c1ccccc1)(C3)C2` shows TSA(with NAD+) / Primary screening (TSA) / delta Tm (K) of 0.02 K or higher.
Criterion not met

Hi, just wondering whether `O=C(CCCc1nc2ccccc2c(=O)[nH]1)N1CC2CC3CC(C2)CC1C3` shows TSA(with NAD+) / Primary screening (TSA) / delta Tm (K) of 0.02 K or higher.
Criterion not met

Hi, just wondering whether `COc1ccnc(N2CCN(C(=O)c3ccc(C(N)=O)s3)CC2)n1` shows TSA(with NAD+) / Primary screening (TSA) / delta Tm (K) of 0.02 K or higher.
Criterion not met

Hi, just wondering whether `O=C(CN1CCc2ccccc21)Nc1cnc2ccccc2c1` shows TSA(with NAD+) / Primary screening (TSA) / delta Tm (K) of 0.02 K or higher.
Criterion not met

Hi, just wondering whether `COc1cc(OC)c(OC)cc1C=C1C(=O)NC(=S)NC1=O` shows TSA(with NAD+) / Primary screening (TSA) / delta Tm (K) of 0.02 K or higher.
Criterion not met

Hi, just wondering whether COC(C)CN (stereo not drawn) shows TSA(with NAD+) / Primary screening (TSA) / delta Tm (K) of 0.02 K or higher.
Criterion not met

Hi, just wondering whether `CN(c1ccccc1)S(=O)(=O)c1cccc(NC(=O)CCCc2c[nH]c3ccccc23)c1` shows TSA(with NAD+) / Primary screening (TSA) / delta Tm (K) of 0.02 K or higher.
Criterion met

Hi, just wondering whether `Cc1nn(-c2ccc(F)cc2)c(C)c1CNCc1ccccc1` shows TSA(with NAD+) / Primary screening (TSA) / delta Tm (K) of 0.02 K or higher.
Criterion not met

Hi, just wondering whether COCC(C)N (stereo not drawn) shows TSA(with NAD+) / Primary screening (TSA) / delta Tm (K) of 0.02 K or higher.
Criterion not met

Hi, just wondering whether `Nc1nc(-c2c(-c3ccccc3)[nH]c3ccccc23)cs1` shows TSA(with NAD+) / Primary screening (TSA) / delta Tm (K) of 0.02 K or higher.
Criterion met

Data provenance: paper PMC6925144
